Examples of binders with documented Fab Binding follow.
molecular target: recombinant human ATX beta isoform with N-terminal purification tag (human, UniProt Q13822 49-863); experiment: ELISA, Fab-His captured by anti-Fd, 5 nM biotinylated human ATX beta

Take a look at these entries with their results.
# binder, Fab Binding
records = [
    ("Fab F11 (VH H2, VL L9) (Fab, V domains shown, Soluble Fab-His) VH: QVQLVQSGAEVKKPGSSVKVSCKASGGTFSSYAISWVRQAPGQGLEWMGGIIPIFGTANYAQKFQGRVTITADESTSTAYMELSSLRSEDTAVYYCARDDLPLGRLDYWGQGTLVTVSS VL: EIVLTQSPATLSLSPGERATLSCRASQSVADFLAWYQQKPGQAPRLLIYTASNRATGIPARFSGSGSGTDFTLTISSLEPEDFAVYYCQQGSTAPYTFGQGTKVEIK", "1.8e+06 relative chemiluminescence units"),
    ("Fab F7 (VH H2, VL L6) (Fab, V domains shown, Soluble Fab-His) VH: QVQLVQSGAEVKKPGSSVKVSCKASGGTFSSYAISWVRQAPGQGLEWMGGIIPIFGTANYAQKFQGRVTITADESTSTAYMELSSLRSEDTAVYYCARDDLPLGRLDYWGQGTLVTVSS VL: EIVLTQSPATLSLSPGERATLSCRASQSVNSWLAWYQQKPGQAPRLLIYYASNRATGIPARFSGSGSGTDFTLTISSLEPEDFAVYYCQQGHRWPFTFGQGTKVEIK", "1.8e+06 relative chemiluminescence units"),
    ("Fab F8 (VH H2, VL L7) (Fab, V domains shown, Soluble Fab-His) VH: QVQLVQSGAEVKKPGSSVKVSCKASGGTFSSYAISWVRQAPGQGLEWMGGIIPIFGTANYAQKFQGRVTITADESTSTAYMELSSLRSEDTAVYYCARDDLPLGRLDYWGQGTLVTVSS VL: EIVLTQSPATLSLSPGERATLSCRASQSVRDWLAWYQQKPGQAPRLLIYGASNRATGIPARFSGSGSGTDFTLTISSLEPEDFAVYYCQQGDGWPWTFGQGTKVEIK", "1.6e+06 relative chemiluminescence units"),
    ("Fab F68 (VH H62, VL L62) (Fab, V domains shown, Soluble Fab-His) VH: QVQLVQSGAEVKKPGSSVKVSCKASGGTFSSYGISWVRQAPGQGLEWMGGIIPIFGTTNYAQKFQGRVTITADESTSTAYMELSSLRSEDTAVYYCARDWWVTDILDYWGQGTLVTVSS VL: EIVLTQSPGTLSLSPGERATLSCRASQSVSSSYLAWYQQKPGQAPRLLIYGASSRATGIPDRFSGSGSGTDFTLTISRLEPEDFAVYYCQQSNTNPLTFGQGTKVEIK", "1.8e+06 relative chemiluminescence units"),
]

Attention now shifts to the item below.
## Task Looking for the measured Fab Binding of Fab F122 (VH H119, VL L108) (Fab, V domains shown, Soluble Fab-His) VH: QVQLVQSGAEVKKPGSSVKVSCKASGGTFSSYAISWVRQAPGQGLEWMGGIIPIFGTANYAQKFQGRVTITADESTSTAYMELSSLRSEDTAVYYCARDGVTTYDYFDYWGQGTLVTVSS VL: EIVLTQSPGTLSLSPGERATLSCRASQSVSSSYLAWYQQKPGQAPRLLIYGASSRATGIPDRFSGSGSGTDFTLTISRLEPEDFAVYYCQQSSRYPWTFGQGTKVEIK , can you help?
## Result 1.9e+06 relative chemiluminescence units
